The reported numbers originate from a melting point compilation (Tetko et al.; mined from patent text by program, amines drawn as free bases though some values may be those of a salt).

measurement_kind: melting point

compound="COc1ccc(Cl)cc1C(=O)NCCc1ccc(C(C)CC(=O)O)cc1 (configuration not stated)" result="125 to 127 °C"

Exercise: Entry O=C1NCCN1C1CCCc2ccccc21 (configuration not stated) has what melting point?
Solution: 134 to 140 °C

Exercise: Entry CC(C)(C)C(COC(N)=O)(NC(=O)C(=O)c1c[nH]c2ccc(Br)cc12)c1c[nH]c2ccc(Br)cc12 (configuration not stated) has what melting point?
Solution: 207 °C

Exercise: Entry Cc1cc(-c2cccc(C3=Nc4ccc(-c5ccccc5F)cc4NC(=O)C3)c2)on1 has what melting point?
Solution: 222 to 224 °C

Exercise: Entry C/C(O)=C(\C#N)C(=O)Sc1ccccc1 has what melting point?
Solution: 106 to 108 °C

Exercise: Entry O=c1oc2ccccc2c(O)c1Sc1ccccc1 has what melting point?
Solution: 186 to 189 °C

Exercise: Entry O=C(N[C@H](Cc1ccc(C(F)(F)F)cc1)[C@@H](O)c1ccc(F)cc1)c1cc(C(F)(F)F)cc(C(F)(F)F)c1 (racemic) has what melting point?
Solution: 150 to 151 °C

Exercise: Entry c1ccc2c(c1)[nH]c1c2ccc2cc[nH]c21 has what melting point?
Solution: 295 °C

Exercise: Entry CN(C)C1CCc2[nH]c3cccc(Cl)c3c2C1 (configuration not stated) has what melting point?
Solution: 212 to 214 °C

Exercise: Entry O=C(O)COc1cccc(Cn2cc(C3c4ccccc4C=Cc4ccccc43)c(=S)[nH]c2=O)c1 has what melting point?
Solution: 148 to 155 °C

Exercise: Entry CCOc1cc2c(c(OC(C)=O)c1OCC)=NC(=O)C(=O)N=2 has what melting point?
Solution: 321 to 322 °C

Exercise: Entry Cc1cn2cccc(N[C@@H]3c4ccccc4C[C@H]3O)c2n1 (relative stereo) has what melting point?
Solution: 188 to 190 °C

* * *

# melting point values compiled below

chem_smiles=CCC(=O)NCCc1c(-c2ccccc2)nn2ccc3c(c12)CCO3 measurement_kind="melting point" result="169 to 170 °C"
chem_smiles=C/C=C/C(=O)NCCc1ccc(F)cc1 measurement_kind="melting point" result="121 to 123 °C"
chem_smiles=O=Cc1ccc(OCCn2ncc3ccccc3c2=O)cc1 measurement_kind="melting point" result="104 to 106 °C"
chem_smiles=CCOCc1cc2cc(Br)ccc2oc1=Nc1ccc(Cl)cc1 measurement_kind="melting point" result="144 to 145 °C"
chem_smiles=N=C(CCCSc1nccc(NC(N)=NCC(F)(F)F)n1)NC(N)=O measurement_kind="melting point" result="112 to 115 °C"
chem_smiles=O=C(O)CCc1cc(CCNS(=O)(=O)c2ccc(Cl)cc2)cc(Cc2ccc(F)cc2)c1 measurement_kind="melting point" result="85 to 87 °C"
chem_smiles=O=S(=O)(Cl)c1cc(S(=O)(=O)Cl)c2c(Cl)ccc(S(=O)(=O)Cl)c2c1 measurement_kind="melting point" result="165 to 166 °C"

API: the following record is the query input.
Exercise: Entry CC[C@@H]1C[C@H](NC(=O)OCc2ccccc2)c2cc(C(F)(F)F)ccc2N1 has what melting point?
Solution: 154 to 155 °C

* * *

# melting point values compiled below

chem_smiles=Cc1nc(NC(=O)OCc2ccccc2)c2n1-c1ccc(Cl)cc1C(c1ccccc1F)=NC2 measurement_kind="melting point" result="250 to 253 °C"
chem_smiles=CC(=O)N1CCCc2cc(CO)ccc21 measurement_kind="melting point" result="95 to 106 °C"

API: the following record is the query input.
Exercise: Entry O=C(OC(=O)c1ccccc1S(=O)(=O)O)c1ccccc1S(=O)(=O)O has what melting point?
Solution: 126 to 129 °C
